# System: Danio rerio larvae (5 dpf)
# Measurement protocol: optomotor response to blue moving lines, difference vs DMSO (percentage points (treated minus DMSO)); higher = more of the behaviour than the DMSO vehicle control
# Condition context: 10 µM; exposure time: 3 h pre-incubation + 3 h imaging
Structures can show the parent of a compound that is named as a salt.
Would you mind labelling by optomotor response to blue moving lines? At or over 3 is rule met, under is rule not met.

Example entries and their recorded answers appear below.
Molecule | Qualitative label
CC1CNc2c(cccc2S(=O)(=O)N[C@@H](CCCNC(=N)N)C(=O)N2CC[C@@H](C)C[C@@H]2C(=O)O)C1 (stereo partly drawn) [Argatroban] | rule met
O=C(c1ccc(OCCN2CCCCC2)cc1)c1c(-c2ccc(O)cc2)sc2cc(O)ccc12 [Raloxifene hydrochloride] | rule not met
CC(C)c1ccc2oc3nc(N)c(C(=O)O)cc3c(=O)c2c1 [Amlexanox] | rule met

Test whether the molecule O=C(O)CCCc1ccccc1 [Sodium 4-Phenylbutyrate] records optomotor response to blue moving lines of 3 or higher.
rule met

Would you kindly repeat that for CNCc1ccc(-c2[nH]c3cc(F)cc4c3c2CCNC4=O)cc1 [Rucaparib camsylate] ?
rule met

Would you kindly repeat that for CN(C)CC/C=C1/c2ccccc2COc2ccc(CC(=O)O)cc21 [Olopatadine hydrochloride] ?
rule not met

Would you kindly repeat that for CC(C)C(=O)OCC(=O)[C@@]12O[C@H](C3CCCCC3)O[C@@H]1C[C@H]1[C@@H]3CCC4=CC(=O)C=C[C@]4(C)[C@H]3[C@@H](O)C[C@@]12C [Ciclesonide] ?
rule not met

* * *

# Tested on: Danio rerio larvae (5 dpf)
# Measurement protocol: optomotor response to green moving lines, difference vs DMSO (percentage points (treated minus DMSO)); higher = more of the behaviour than the DMSO vehicle control
# Condition context: 10 µM; exposure time: 3 h pre-incubation + 3 h imaging
Structures can show the parent of a compound that is named as a salt.
Would you mind labelling by optomotor response to green moving lines? At or over -0.8 is Yes, under is No.

Compound | Qualitative label
CCOC(=O)[C@H](CCc1ccccc1)N[C@H]1CCc2ccccc2N(CC(=O)O)C1=O [Benazepril hydrochloride] | Yes

Test whether the compound CCCCNc1cc(C(=O)O)cc(S(N)(=O)=O)c1Oc1ccccc1 [Bumetanide] records optomotor response to green moving lines of -0.8 or higher.
Yes

Would you kindly repeat that for Cc1nc(Nc2ncc(C(=O)Nc3c(C)cccc3Cl)s2)cc(N2CCN(CCO)CC2)n1 ?
No

Would you kindly repeat that for CC(C)COCC(CN(Cc1ccccc1)c1ccccc1)N1CCCC1 (centres undefined) [Bepridil hydrochloride] ?
No

* * *

# Test system: Danio rerio larvae (5 dpf)
# Measurement protocol: optomotor response to red moving lines, difference vs DMSO (percentage points (treated minus DMSO)); higher = more of the behaviour than the DMSO vehicle control
# Condition context: 10 µM; exposure time: 3 h pre-incubation + 3 h imaging
Structures can show the parent of a compound that is named as a salt.
Endpoint: optomotor response to red moving lines
Answers are plain numbers.

Past entries and their recorded results:
Molecule | optomotor response to red moving lines
CC(=O)O[C@H]1C(=O)[C@@]2(C)[C@H]([C@H](OC(=O)c3ccccc3)[C@]3(O)C[C@H](OC(=O)[C@H](O)[C@@H](NC(=O)c4ccccc4)c4ccccc4)C(C)=C1C3(C)C)[C@]1(OC(C)=O)CO[C@@H]1C[C@@H]2O | 6.51
COc1c(C)c2c(c(O)c1C/C=C(\C)CCC(=O)O)C(=O)OC2 | -3.36
Cc1ccc(NC(=O)c2ccc(CN3CCN(C)CC3)cc2)cc1Nc1nccc(-c2cccnc2)n1 [Imatinib mesylate] | -3.1
Cc1nnc(C(C)C)n1C1C[C@H]2CC[C@@H](C1)N2CC[C@H](NC(=O)C1CCC(F)(F)CC1)c1ccccc1 (stereo in doubt) | -6.34

Please report optomotor response to red moving lines for every entry that follows.
1. O=C(O[C@@H]1C[C@@H]2C[C@H]3C[C@H](C1)N2CC3=O)c1c[nH]c2ccccc12 [Dolasetron mesylate]
2. CC(=O)O[C@]1(C(C)=O)CC[C@H]2[C@@H]3C=C(C)C4=CC(=O)CC[C@]4(C)[C@H]3CC[C@@]21C [Megestrol Acetate]
3. CC(C)(C(=O)O)c1ccc(C(O)CCCN2CCC(C(O)(c3ccccc3)c3ccccc3)CC2)cc1 (stereo unspecified) [Fexofenadine hydrochloride]
4. Nc1nc2c(ncn2COCCO)c(=O)[nH]1
5. Nc1nc(F)nc2c1ncn2[C@@H]1O[C@H](CO)[C@@H](O)[C@@H]1O
6. COc1cc(N)c(Cl)cc1C(=O)NC1CCN(CCCOc2ccc(F)cc2)CC1OC (stereo unspecified) [Cisapride]
7. CN1CC2c3ccccc3Oc3ccc(Cl)cc3C2C1 (stereo unspecified) [Asenapine maleate]

-6.24
3.71
3.62
1.94
-10.8
-3.64
-5.48
